- System under test: human PD1 on cells (human, UniProt Q15116 25-288)
- Sequence (Q15116 25-288 limits assumed): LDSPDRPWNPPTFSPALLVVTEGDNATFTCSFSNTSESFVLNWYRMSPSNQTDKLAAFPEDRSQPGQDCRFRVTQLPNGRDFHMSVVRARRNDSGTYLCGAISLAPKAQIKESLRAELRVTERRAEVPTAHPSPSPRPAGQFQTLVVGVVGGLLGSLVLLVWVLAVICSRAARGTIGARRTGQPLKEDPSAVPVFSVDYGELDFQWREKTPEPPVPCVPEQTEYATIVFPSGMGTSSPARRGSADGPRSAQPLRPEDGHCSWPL
- Assay details: cell-based or functional assay
Measured parameter: PD1 blocking activity (reporter assay) Vmax (RLU)

Binder: P-1178 (antibody, human IgG1, kappa, V domains shown) VH: EVQLLESGGGLVQPGGSLRLSCAASGFTFTNYYMYWVRQAPGKGLEWMGGINPSNGGTNYADKFKGRFTLSTDSSKNTLYLQMNSLRAEDTAVYYCARRDYRFDMGFDYWGQGTLVTVSS VL: EIVLTQSPATLSLSPGERATLSCRASKGVSTSGYSYLHWYQQKPGQAPRLLIYLASYLESGVPARFSGSGSGTDFTLTISSLEPEDFAVYYCQHSRDLPLTFGGGTKVEIKR
Experimental result: 53100
